molecular target: human IL-6 (human, UniProt P05231 30-212); experiment: SPR (Biacore), supernatant antibody on Protein A chip, IL-6 flowed, 37 C
Sequence (P05231 30-212 limits assumed): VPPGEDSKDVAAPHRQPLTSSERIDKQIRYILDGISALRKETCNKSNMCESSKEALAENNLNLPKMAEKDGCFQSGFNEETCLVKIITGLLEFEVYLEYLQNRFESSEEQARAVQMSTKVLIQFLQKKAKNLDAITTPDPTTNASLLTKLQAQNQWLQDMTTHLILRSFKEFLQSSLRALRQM
Collected koff values appear next to each entry.
A number alone suffices; assume s⁻¹.

Solved entries (count: 2):
Form: binder = anti-IL-6 antibody, heavy chain T65P, G66D / light chain M32L, M50D, N52S, M88Q (antibody, human IgG1, V domains shown, Human IgG1) VH: EVQLVESGGGLVQPGGSLRLSCAASGFTFSPFAMSWVRQAPGKGLEWVAKISPGGSWTYYSDTVPDRFTFSLDTSKSTAYLQMNSLRAEDTAVYYCARQLWGYYALDIWGQGTLVTVSS VL: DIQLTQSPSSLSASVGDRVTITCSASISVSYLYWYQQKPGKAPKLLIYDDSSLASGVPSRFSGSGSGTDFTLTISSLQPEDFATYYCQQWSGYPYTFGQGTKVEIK ; koff = 0.00108

Entry anti-IL-6 antibody, heavy chain T63A, G66D / light chain M32L, M50D, N52S, M88Q (antibody, human IgG1, V domains shown, Human IgG1) VH: EVQLVESGGGLVQPGGSLRLSCAASGFTFSPFAMSWVRQAPGKGLEWVAKISPGGSWTYYSDAVTDRFTFSLDTSKSTAYLQMNSLRAEDTAVYYCARQLWGYYALDIWGQGTLVTVSS VL: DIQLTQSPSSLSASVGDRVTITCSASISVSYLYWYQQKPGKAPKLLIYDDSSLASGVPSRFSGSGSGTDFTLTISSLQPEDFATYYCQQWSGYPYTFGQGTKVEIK , koff reported as 0.000458

---
Entry anti-IL-6 antibody, heavy chain I51Q, G66D / light chain M32L, M50D, N52S, M88Q (antibody, human IgG1, V domains shown, Human IgG1) VH: EVQLVESGGGLVQPGGSLRLSCAASGFTFSPFAMSWVRQAPGKGLEWVAKQSPGGSWTYYSDTVTDRFTFSLDTSKSTAYLQMNSLRAEDTAVYYCARQLWGYYALDIWGQGTLVTVSS VL: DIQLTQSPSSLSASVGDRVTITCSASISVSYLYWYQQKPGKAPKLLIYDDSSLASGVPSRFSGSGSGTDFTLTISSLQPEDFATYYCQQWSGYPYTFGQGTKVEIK , koff reported as 0.00113
